This collection of values is drawn from patent US20170342144A1.

Listed below: kd mutant/kd wt values for each entry.
target: T1, human TGFβ1 (human, UniProt P01137 279-390); experiment: Biacore off-rate vs wt GC1008
T1 construct: also called TGFβ1 homodimer
T1 sequence (P01137 279-390 limits assumed): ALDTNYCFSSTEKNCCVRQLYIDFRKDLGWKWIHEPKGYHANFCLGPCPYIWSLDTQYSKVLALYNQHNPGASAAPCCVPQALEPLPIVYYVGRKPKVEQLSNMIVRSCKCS
Give your answer as a number; write no unit.

Completed entries (count: 2):
binder | kd mutant/kd wt
N32K (antibody, V domains shown, GC1008 IgG4 variant) VH: QVQLVQSGAEVKKPGSSVKVSCKASGYTFSSKVISWVRQAPGQGLEWMGGVIPIVDIANYAQRFKGRVTITADESTSTTYMELSSLRSEDTAVYYCASTLGLVLDAMDYWGQGTLVTVSS VL: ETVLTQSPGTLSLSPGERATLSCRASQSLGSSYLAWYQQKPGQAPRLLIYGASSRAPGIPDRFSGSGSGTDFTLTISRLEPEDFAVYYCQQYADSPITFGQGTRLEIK | 2.7
I54N (antibody, V domains shown, GC1008 IgG4 variant) VH: QVQLVQSGAEVKKPGSSVKVSCKASGYTFSSNVISWVRQAPGQGLEWMGGVIPNVDIANYAQRFKGRVTITADESTSTTYMELSSLRSEDTAVYYCASTLGLVLDAMDYWGQGTLVTVSS VL: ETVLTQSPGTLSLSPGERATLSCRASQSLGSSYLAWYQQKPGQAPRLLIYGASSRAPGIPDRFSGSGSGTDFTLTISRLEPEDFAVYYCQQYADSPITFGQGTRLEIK | 4.9

With those in mind, consider the next binder.
Asked: // lookup kd mutant/kd wt for S30W (antibody, V domains shown, GC1008 IgG4 variant) VH: QVQLVQSGAEVKKPGSSVKVSCKASGYTFWSNVISWVRQAPGQGLEWMGGVIPIVDIANYAQRFKGRVTITADESTSTTYMELSSLRSEDTAVYYCASTLGLVLDAMDYWGQGTLVTVSS VL: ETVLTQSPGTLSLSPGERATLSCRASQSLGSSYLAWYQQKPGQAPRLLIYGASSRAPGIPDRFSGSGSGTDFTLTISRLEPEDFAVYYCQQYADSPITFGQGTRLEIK
Given back: 0.7
